experimental.target: Muscarinic acetylcholine receptor M1 (Homo sapiens, UniProt P11229)
Sequence (P11229 whole entry): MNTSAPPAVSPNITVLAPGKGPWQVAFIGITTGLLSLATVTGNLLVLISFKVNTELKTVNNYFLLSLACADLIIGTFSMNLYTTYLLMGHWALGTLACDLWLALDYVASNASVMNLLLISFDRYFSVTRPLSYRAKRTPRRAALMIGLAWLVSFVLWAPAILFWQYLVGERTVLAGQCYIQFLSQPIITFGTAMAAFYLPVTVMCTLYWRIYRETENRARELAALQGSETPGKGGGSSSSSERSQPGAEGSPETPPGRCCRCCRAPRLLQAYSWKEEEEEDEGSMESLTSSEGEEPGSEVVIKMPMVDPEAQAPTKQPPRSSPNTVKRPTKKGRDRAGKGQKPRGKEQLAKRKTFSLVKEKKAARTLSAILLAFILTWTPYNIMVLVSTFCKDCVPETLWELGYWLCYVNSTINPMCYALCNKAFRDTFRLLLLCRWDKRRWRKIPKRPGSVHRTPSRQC
method.summary: Positive allosteric modulation of muscarinic M1 receptor (unknown origin) expressed in CHO cells assessed as increase in Ach-induced accumulation of inositol phosphate accumulation measured after 30 mins by HTRF assay
Assay type: functional, cell-based
reported.metric: EC50

# lookup: EC50 of Cc1cnc(C(=O)N[C@H]2CCOC[C@@H]2O)cc1Cc1ccc(-c2cscn2)cc1
447 nM

###

method.summary: Half-life in rat at 0.5 mg/kg, po or 1 mg/kg, iv
Format: ADME, organism-based
test.settings: in vivo
reported.metric: half-life (h)
API: value field is a number in h; no unit string.

# lookup: half-life of Cc1cnc(C(=O)N[C@H]2CCOC[C@@H]2O)cc1Cc1ccc(-c2cscn2)cc1
5.58

###

method.summary: Half life in dog at 0.5 mg/kg, po or 0.1 mg/kg, iv
Type: ADME, organism-based, Canis lupus familiaris
test.settings: in vivo
reported.metric: half-life (h)
API: value field is a number in h; no unit string.

# lookup: half-life of Cc1cnc(C(=O)N[C@H]2CCOC[C@@H]2O)cc1Cc1ccc(-c2cscn2)cc1
5.17

###

method.summary: Aqueous solubility of compound at pH 6.5
Format: physicochemical
test.settings: buffer
reported.metric: solubility (µg/mL)
API: value field is a number in µg/mL; no unit string.

# lookup: solubility of Cc1cnc(C(=O)N[C@H]2CCOC[C@@H]2O)cc1Cc1ccc(-c2cscn2)cc1
2.7

###

method.summary: Clearance in dog at 0.1 mg/kg, iv administered as single bolus dose
Format: ADME, organism-based, Canis lupus familiaris
test.settings: in vivo
reported.metric: clearance (mL/min/kg)
API: value field is a number in mL/min/kg; no unit string.

# lookup: clearance of Cc1cnc(C(=O)N[C@H]2CCOC[C@@H]2O)cc1Cc1ccc(-c2cscn2)cc1
2.73

###

method.summary: Fraction unbound in Wistar Han rat plasma
Format: ADME
reported.metric: Fu

# lookup: Fu of Cc1cnc(C(=O)N[C@H]2CCOC[C@@H]2O)cc1Cc1ccc(-c2cscn2)cc1
4.3%

###

method.summary: Ratio of fAUC in dog brain to plasma
Format: ADME, cell-free, Canis lupus familiaris
test.settings: brain and plasma, read-out: Ratio AUC
reported.metric: Kp uu
Answer using only a numeral; do not append any unit.

# lookup: Kp uu of Cc1cnc(C(=O)N[C@H]2CCOC[C@@H]2O)cc1Cc1ccc(-c2cscn2)cc1
0.3

###

experimental.target: Muscarinic acetylcholine receptor M1 (Homo sapiens, UniProt P11229)
method.summary: Agonist activity at muscarinic M1 receptor (unknown origin) expressed in CHO cells assessed as accumulation of inositol phosphate measured after 30 mins by HTRF assay
Type: functional, cell-based
reported.metric: EC50

# lookup: EC50 of Cc1cnc(C(=O)N[C@H]2CCOC[C@@H]2O)cc1Cc1ccc(-c2cscn2)cc1
≥ 9.2 µM

###

experimental.target: Muscarinic acetylcholine receptor M1 (Homo sapiens)
Sequence (P11229 whole entry): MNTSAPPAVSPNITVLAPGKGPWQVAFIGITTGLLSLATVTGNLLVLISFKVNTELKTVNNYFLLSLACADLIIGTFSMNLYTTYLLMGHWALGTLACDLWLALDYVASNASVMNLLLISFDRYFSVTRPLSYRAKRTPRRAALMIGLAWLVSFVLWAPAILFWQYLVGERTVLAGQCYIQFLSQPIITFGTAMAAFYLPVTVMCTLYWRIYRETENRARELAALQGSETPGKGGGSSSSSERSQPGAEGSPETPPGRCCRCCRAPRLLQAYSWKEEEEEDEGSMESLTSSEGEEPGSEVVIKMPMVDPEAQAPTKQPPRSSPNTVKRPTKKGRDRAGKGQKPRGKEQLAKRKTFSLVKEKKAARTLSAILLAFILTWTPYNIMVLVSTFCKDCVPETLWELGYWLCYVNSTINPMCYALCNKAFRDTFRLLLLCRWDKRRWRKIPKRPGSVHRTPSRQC
method.summary: Positive allosteric modulation of human muscarinic M1 receptor stably expressed in CHO cells assessed as increase in Ach-induced intracellular calcium level preincubated for 10 mins followed by addition of Ach at EC20 concentration by Fluo-8AM dye based FLIPR TETRA method
Format: functional, cell-based
Can you tell me pEC50 for the items I'm about to list?
Notebook: values listed as pEC50 are -log10 of the concentration (mol/L).

# lookup: pEC50 of Cc1c(Cc2ccc(-c3ccn(C)n3)cc2)cc(C(=O)N[C@H]2CCCC[C@@H]2O)c(=O)n1C
6.99

For Cc1ncc(C(=O)N[C@H]2CCOC[C@@H]2O)cc1Cc1ccc(-n2cccn2)cc1 then?
6.41

For Cc1cc(F)c(C(=O)N[C@H]2CCOC[C@@H]2O)cc1Cc1ccc(-n2cccn2)cc1 then?
6.94

For Cc1c(Cc2ccc(-c3cocn3)cc2)cc(C(=O)N[C@H]2CCCC[C@@H]2O)c(=O)n1C then?
7.42

For Cc1ccc(C(=O)N[C@H]2CCOC[C@@H]2O)cc1Cc1ccc(-n2cccn2)cc1 then?
6.68

For Cc1c(Cc2ccc(-n3cccn3)cc2)cc(C(=O)N[C@H]2CCOC[C@@H]2O)c(=O)n1C then?
7.70

For Cc1c(Cc2ccc(-c3cscn3)cc2)cc(C(=O)N[C@H]2CCCC[C@@H]2O)c(=O)n1C then?
6.78

For Cc1c(Cc2ccc(-n3cccn3)cc2)cc(C(=O)N[C@H]2CCCC[C@@H]2O)c(=O)n1C then?
7.54

For CO[C@@H]1CCN(c2ccc(Cc3cc(C(=O)N[C@H]4CCCC[C@@H]4O)c(=O)n(C)c3C)cc2)C1 then?
5.77

###

experimental.target: UniProt:P11229
Sequence (P11229 whole entry): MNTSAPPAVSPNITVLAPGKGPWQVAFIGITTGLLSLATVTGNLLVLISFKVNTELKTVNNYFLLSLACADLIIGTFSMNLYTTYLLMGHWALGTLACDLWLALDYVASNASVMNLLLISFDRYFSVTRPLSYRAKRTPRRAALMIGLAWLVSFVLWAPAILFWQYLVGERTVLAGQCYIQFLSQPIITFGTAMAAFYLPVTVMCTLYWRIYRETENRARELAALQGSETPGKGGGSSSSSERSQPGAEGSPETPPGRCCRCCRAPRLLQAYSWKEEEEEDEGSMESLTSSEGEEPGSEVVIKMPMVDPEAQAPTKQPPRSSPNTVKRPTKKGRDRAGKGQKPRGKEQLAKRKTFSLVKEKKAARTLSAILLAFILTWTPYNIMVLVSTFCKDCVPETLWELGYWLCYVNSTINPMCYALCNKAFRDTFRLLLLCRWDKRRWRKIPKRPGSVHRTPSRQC
method.summary: Partial agonist activity at human muscarinic M1 receptor stably expressed in CHO cells assessed as increase in intracellular calcium level measured after 10 mins by Fluo-8AM dye based FLIPR TETRA method
Type: functional, cell-based
pEC50: −log10 of the molar value.
reported.metric: pEC50

Please state recorded pEC50 (tested on UniProt:P11229) of Cc1cnc(C(=O)N[C@H]2CCOC[C@@H]2O)cc1Cc1ccc(-c2cscn2)cc1
≤ 5.41

###

Can you tell me Kp for the items I'm about to list?
method.summary: Ratio of AUC in mouse brain to plasma
Type: ADME, cell-free
test.settings: brain and plasma, read-out: Ratio AUC
Answer using only a numeral; do not append any unit.

# lookup: Kp of Cc1c(Cc2ccc(-c3cocn3)cc2)cc(C(=O)N[C@H]2CCCC[C@@H]2O)c(=O)n1C
0.03

For Cc1c(Cc2ccc(-n3cccn3)cc2)cc(C(=O)N[C@H]2CCCC[C@@H]2O)c(=O)n1C then?
0.05

###

method.summary: Thermodynamic solubility of compound at pH 6.5
Assay type: physicochemical
test.settings: buffer, read-out: Therm_solubility
reported.metric: solubility thermodynamic (µg/mL)
API: value field is a number in µg/mL; no unit string.

# lookup: solubility thermodynamic of Cc1cnc(C(=O)N[C@H]2CCOC[C@@H]2O)cc1Cc1ccc(-c2cscn2)cc1
2.7
